# System: mPTP
# procedure_text: mPTP activity (Ca2+ retention) assay in isolated rat liver mitochondria
# Format: biochemical
# measurement_setup: isolated rat liver mitochondria; Fluo5N fluorescence at 10 min after CaCl2 (75 μM) bolus; DMSO 0%, 5 μM cyclosporin A 100% inhibition
value_kind: mPTP Rat liver pIC50*
Give bare numbers.

molecule: O=C(c1noc(=O)[nH]1)N1CC(c2ccc(F)c(F)c2)C2(CCC2)C1 (single isomer, unassigned) [Example 47a]
target_or_test_system: mPTP
mPTP Rat liver pIC50*: 5.75

molecule: CC1(C)CN(C(=O)c2cncc(=O)[nH]2)CC1c1ccccc1 (single isomer, unassigned) [Example 10a]
target_or_test_system: mPTP
mPTP Rat liver pIC50*: 6.18

Below are 2 molecules. Give each one its mPTP Rat liver pIC50*.
1. O=C(c1nccc(=O)[nH]1)N1CC(c2ccccc2)C2(CCC2)C1 (racemic) [Example 18]
2. O=C(c1cncc(=O)[nH]1)N1CC(c2ccc(F)cc2)C2(CCC2)C1 (single isomer, unassigned) [Example 35a]

-- reply
1. 5.52
2. 6.82

###

# System: mPTP
# procedure_text: mPTP activity (Ca2+ retention) assay in isolated rat brain mitochondria
# Format: biochemical
# measurement_setup: isolated rat brain mitochondria; Fluo5N fluorescence at 10 min after Ca2+ (75 μM) bolus
Rule: label 1 for mPTP Rat brain pIC50 not less than 6, label 0 for anything less.

Consider the worked cases shown below.
compound: O=C(c1nccc(=O)[nH]1)N1CC(c2ccccc2)C2(CC(F)C2)C1 (single isomer, unassigned) [Example 25c]
group: label 1
//
compound: O=C(c1cncc(=O)[nH]1)N1CC(c2cccc(F)c2F)C2(CCC2)C1 (single isomer, unassigned) [Example 43b]
group: label 0
//
compound: O=C(c1cncc(O)n1)N1CC(c2ccccc2)C2(CCC2)C1 (single isomer, unassigned) [Example 6a]
group: label 1
//
compound: O=C(c1cncc(O)c1)N1CC(c2ccccc2)C2(CCC2)C1 (single isomer, unassigned) [Example 1b]
group: label 1
//
compound: CCC1CN(C(=O)c2cncc(=O)[nH]2)CC1c1ccccc1 (single isomer, unassigned) [Example 15b]
group: label 0
//
compound: O=C(c1cncc(=O)[nH]1)N1CC(c2ccccc2F)C2(CCC2)C1 (stereo not drawn)
group: label 1
//
compound: O=C(c1cccc(=O)[nH]1)N1CC(c2ccccc2)C2(CCC2)C1 (single isomer, unassigned) [Example 26b]
group: label 0
//
compound: O=C(c1cc(O)no1)N1CC(c2cccc(F)c2)C2(CCC2)C1 (single isomer, unassigned) [Example 38b]
group: label 0
//
compound: O=C(c1noc(=O)[nH]1)N1CC(c2ccccc2)C2(CCC2)C1 (stereo not drawn) [Example 24]
group: label 1
//
compound: O=C(c1cncc(=O)[nH]1)N1CC(c2cccc(F)c2F)C2(CCC2)C1 (single isomer, unassigned) [Example 43a]
group: label 1

-- ask Say whether Cn1nc(C(=O)N2CC(c3ccccc3F)C3(CCC3)C2)[nH]c1=O (stereo not drawn) shows mPTP Rat brain pIC50 of 6 or more.
-- reply label 1

-- ask Say whether N#Cc1ccc(C2CN(C(=O)c3cncc(=O)[nH]3)CC23CCC3)cc1 (single isomer, unassigned) [Example 20b] shows mPTP Rat brain pIC50 of 6 or more.
-- reply label 0

-- ask Say whether O=C(c1cncc(=O)[nH]1)N1CC(c2cccc(F)c2)C2(CCC2)C1 (single isomer, unassigned) [Example 40a] shows mPTP Rat brain pIC50 of 6 or more.
-- reply label 1
